study-target: hCB1 (Homo sapiens)
Sequence (P21554 whole entry): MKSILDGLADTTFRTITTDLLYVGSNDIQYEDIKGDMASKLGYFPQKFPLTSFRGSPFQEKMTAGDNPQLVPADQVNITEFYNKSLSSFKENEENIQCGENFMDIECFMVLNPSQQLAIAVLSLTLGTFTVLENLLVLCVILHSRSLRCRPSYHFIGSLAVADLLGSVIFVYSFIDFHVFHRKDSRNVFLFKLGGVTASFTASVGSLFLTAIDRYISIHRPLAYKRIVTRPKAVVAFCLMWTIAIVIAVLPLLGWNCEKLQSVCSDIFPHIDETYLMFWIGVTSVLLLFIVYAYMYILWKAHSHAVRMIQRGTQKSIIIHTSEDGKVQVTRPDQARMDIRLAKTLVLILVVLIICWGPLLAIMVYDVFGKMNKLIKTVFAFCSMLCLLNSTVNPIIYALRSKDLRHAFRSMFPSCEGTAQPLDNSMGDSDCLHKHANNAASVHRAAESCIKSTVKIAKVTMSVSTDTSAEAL
experimental-protocol: bioSensAll ebBRET signaling profiling, hCB1
Assay type: cell-based
Parameters: host or cells: HEK293SL cells, transient PEI transfection
measurement-conditions: Gi1 biosensor; Log [Compound] (M) -8.22186
Threshold check on Gi1 hCB1 response: at or above 0.1 gives yes, strictly below gives no.

As a guide, the following entries are already answered.
{"columns": ["molecule", "study-target", "assigned-label"],
 "data": [
  ["Cc1cc(C(=O)N2CC3(CCC3)[C@H]2[C@H]2CCCO2)nn1-c1cccc(C(F)(F)F)c1 [‘1651]", "hCB1 (Homo sapiens)", "no"],
  ["COC(=O)[C@@H]1[C@@H]2CCC[C@@H]2CN1C(=O)c1cc(C)n(-c2cccc(C(F)(F)F)c2)n1 [‘6439]", "hCB1 (Homo sapiens)", "yes"]
]}

Query block: Threshold query (Gi1 hCB1 response >= 0.1) on Cc1cc(C(=O)NC(c2ccccc2)c2ccco2)nn1-c1cccc(C(F)(F)F)c1 (stereo not drawn) [‘1081]
Result block: yes

Query block: hey, is Gi1 hCB1 response for this one >= 0.1? Cc1cc(C(=O)N2CC3(CCC3)[C@H]2[C@@H]2CCCO2)nn1-c1cccc(C(F)(F)F)c1 [‘5490]
Result block: no

Query block: Could you verify whether the entry Cc1cc(C(=O)N(C)C(c2ccccc2)c2ccco2)nn1-c1cccc(C(F)(F)F)c1 (stereo not drawn) [‘1082] shows Gi1 hCB1 response of no less than 0.1?
Result block: yes
